assay: in vivo; conditions: rat, iv
experimentalEndpoint: LD50 (mg/kg)
Give a bare numeral; the unit mg/kg is implied.

Looking for the measured LD50 of NS(=O)(=O)c1cc2c(cc1C(F)(F)F)NCNS2(=O)=O [Hydroflumethia-zide, hydroflumethiazide, reference compound] , can you help? 750

###

test: in vivo; details: rat, ip
experimentalEndpoint: LD50

Field: example entries. Status: answers known.
compound	LD50
Cc1csc2nc(-c3ccccc3)c(C=NNC(=O)CN(C)C)n12 [Example 7]	> 3000 mg/kg
CN(C)CC(=O)NN=Cc1c(-c2ccc(Cl)cc2)nc2sccn12 [Example 4]	> 1000 mg/kg

We next turn to a different compound, shown below.
Looking for the measured LD50 of Cc1ccc(-c2nc3sccn3c2C=NNC(=O)CN(C)C)cc1 [Example 5] , can you help? > 3000 mg/kg
